# experiment: Selectivity ratio of Ki for displacement of [3H](+)-pentazocine from sigma 1 receptor in guinea pig brain membranes to Ki for displacement of [125I]-RHM-4 from sigma2 receptor in rat liver membranes
# Type: cell membranes

structure notation: COc1cc2c(c(OC)c1OC)CCN(CCCCC(=O)c1c(C)c(OC)c(OC)c(OC)c1OC)C2
Ratio Ki: > 29

structure notation: COc1cc2c(c(OC)c1OC)CCN(CCCCCC(=O)c1c(C)c(OC)c(OC)c(OC)c1OC)C2
Ratio Ki: > 50

structure notation: COc1cc2c(c(OC)c1OC)CN(CCCCCC(=O)c1c(C)c(OC)c(OC)c(OC)c1OC)CC2
Ratio Ki: > 79

structure notation: COc1cc2c(c(OC)c1OC)CCN(CCCCCCC(=O)c1c(C)c(OC)c(OC)c(OC)c1OC)C2
Ratio Ki: > 24

structure notation: COc1cc2c(c(OC)c1OC)CCN(CCCC(=O)c1c(C)c(OC)c(OC)c(OC)c1OC)C2
Ratio Ki: > 24

structure notation: COc1cc2c(c(OC)c1OC)CN(CCCCC(=O)c1c(C)c(OC)c(OC)c(OC)c1OC)CC2
Ratio Ki: > 44

These measurements were taken from ChEMBL document CHEMBL4732061.
